- experimentalSystem: His-tagged Cereblon/DDB1 complex (Homo sapiens (Human), UniProt Q96SW2)
- assayMethodText: Cereblon binding assay (AlphaLISA Human Cereblon Binding Kit, competition)
- details: 10 μM top dose, biotinylated ligand competition; read-out: CRBN IC50
Provide the recorded pIC50 for the entries that follow.
Give bare numbers, as −log10 of the molar value.

Below is a list of compounds. For each, state its recorded pIC50.
1. Cc1c([C@@H](C)NC(=O)c2nc(C(C)(C)C)no2)ccc(-c2cc(Nc3ccc(N4CCN(CCc5ccc(N6CCC(=O)NC6=O)cc5)C[C@@H]4C)cn3)ncn2)c1F
2. Cc1c([C@@H](C)NC(=O)c2nc(C(C)(C)C)no2)ccc(-c2cc(Nc3ccc(N4CCN(CCc5ccc(N6CCC(=O)NC6=O)cc5)CC4)cn3)ncn2)c1F

1. 5.20
2. 5.67
